Where these numbers come from: PubChem BioAssay AID2740

# methodDescription: TOR pathway RPL19A-GFP modulators, concentration series – cell-based, S. cerevisiae, flow cytometry, MLPCN hits, dose response (AID 2740)
# conditions: S. cerevisiae RPL19A-GFP strain, flow cytometry fluorescence, 3 h; at 33 µM (top of the series)
Decision: GFP fluorescence, lower = active (kMESF (background-subtracted)) >= 40 yields t, all other cases yield f.

Lookup: For this molecule, is measured GFP fluorescence, lower = active (kMESF (background-subtracted)) 40 or higher? Cc1cc(C)c(S(=O)(=O)N2CCC(C(=O)NCc3ccc(Cl)cc3Cl)CC2)c(C)c1
Found: f

Lookup: For this molecule, is measured GFP fluorescence, lower = active (kMESF (background-subtracted)) 40 or higher? CCCCC(=O)NNC(=S)NC(=O)c1ccc(C)cc1
Found: t

Lookup: For this molecule, is measured GFP fluorescence, lower = active (kMESF (background-subtracted)) 40 or higher? CN(c1ccccc1)c1ccc(/C=c2\s/c(=C(/C#N)C(=O)C(C)(C)C)n(Cc3ccco3)c2=O)cc1
Found: t

Lookup: For this molecule, is measured GFP fluorescence, lower = active (kMESF (background-subtracted)) 40 or higher? Nc1ccc2ccc3cccc[n+]3c2c1
Found: t
